Kindly supply the reported pKi values for the records listed here.
# Target under test: UniProt Q16790
Answers are plain numbers, as −log10 of the molar value.

Recorded results for 4 molecules are shown here.
# Mol, pKi
records = [
    ("CC1(C)CC(NC(=S)Nc2ccc(S(=O)(=O)Nc3ccc(S(N)(=O)=O)cc3)cc2)CC(C)(C)N1[O]", 7.52),
    ("CC1(C)CC(NC(=S)Nc2ccc(S(N)(=O)=O)cc2F)CC(C)(C)N1[O]", 7.66),
    ("CC1(C)CC(NC(=S)NCc2ccc(S(N)(=O)=O)cc2)CC(C)(C)N1[O]", 7.46),
    ("CC1(C)CC(NC(=S)Nc2ccc(S(=O)(=O)NCc3ccc(S(N)(=O)=O)cc3)cc2)CC(C)(C)N1[O]", 8.15),
]

Hey, quick one: what's pKi for each of these?
1. CC1(C)CC(NC(=S)Nc2ccc(S(=O)(=O)Nc3cccc(S(N)(=O)=O)c3)cc2)CC(C)(C)N1[O]
2. CC1(C)CC(NC(=S)Nc2ccc(S(=O)(=O)NCCc3ccc(S(N)(=O)=O)cc3)cc2)CC(C)(C)N1[O]
3. CC1(C)CC(NC(=S)NCCc2ccc(S(N)(=O)=O)cc2)CC(C)(C)N1[O]

1: 6.66; 2: 7.39; 3: 7.41

Provide the reported pKi of each entry below, same order.
1. CC1(C)CC(NC(=S)Nc2cccc(S(N)(=O)=O)c2)CC(C)(C)N1[O]
2. CC1(C)CC(NC(=S)Nc2ccc(S(N)(=O)=O)cc2Cl)CC(C)(C)N1[O]

[6.88, 7.85]
